Test system: MDA-MB-468 breast
PROTOCOL: NCI tumour cell line growth inhibition, 48 h; in the data active = GI50 below about 0.43 µM; inactive = the rest
Just give me one of these, please: active, inactive

# count of solved cases: 3
# COMPOUND, CLASS LABEL
records = [
    ("CC(=O)O[C@H]1C(=O)[C@@]2(C)C([C@H](OC(=O)c3ccccc3)[C@]3(O)C[C@H](OC(=O)[C@H](O)[C@@H](NC(=O)c4ccccc4)c4ccccc4)C(C)=C1C3(C)C)[C@]1(OC(C)=O)CO[C@@H]1C[C@@H]2O (stereo not given in full)", "active"),
    ("COc1ccc2sc3c(NCCCN)nc4ccccc4c3c(=O)c2c1", "inactive"),
    ("CCN1C(=O)N(CC)C2SC(N/N=C/c3ccc(OC)cc3)=NC21 (stereo not given)", "active"),
]

**Q:** Check the results log: what was the call for CC(=O)ON1CCCC(P(=O)(OCOC(=O)C(C)(C)C)OCOC(=O)C(C)(C)C)C1=O (stereo not given) ?
**A:** inactive

**Q:** Check the results log: what was the call for CC(C)(CO)CNC(=O)c1ccc2[nH]c(O)c(N=Nc3ccc(S(N)(=O)=O)cc3)c2c1 ?
**A:** inactive

**Q:** Check the results log: what was the call for Cc1cccc(NC(=O)c2sc3nc4c(cc3c2N)C(=O)CCC4)c1 ?
**A:** active

**Q:** Check the results log: what was the call for Cc1ccc(O)cc1Nc1ccnc2ccc(S(C)(=O)=O)cc12 ?
**A:** inactive

**Q:** Check the results log: what was the call for COc1cc2c(cc1Nc1nc(N3CCc4ccccc43)c3cc[nH]c3n1)N(C(=O)CN(C)C)CC2 ?
**A:** inactive

###

Test system: OVCAR-8 ovarian
PROTOCOL: NCI tumour cell line growth inhibition, 48 h
# GI50 annotations

# COMPOUND, OBSERVED PROPERTY, RESULT
data = [
    ("C/C(=N/O)c1ccc(NC(=O)CSc2nnc(-c3ccc(-c4nc5ccc(Cl)cc5[nH]4)cc3)o2)cc1", "GI50", "2.94 µM"),
]

**Q:** Returns the measured GI50 for the input compound. Input: O=C1Nc2cc(Cl)ccc2/C1=C/c1cccc(OCc2ccccc2)c1
**A:** 6.86 µM

**Q:** Returns the measured GI50 for the input compound. Input: COc1ccc2[nH]cc(-c3cc4nc(-c5cn(C)c6ncc(Br)cc56)cc(N)n4n3)c2c1
**A:** 1.86 µM

**Q:** Returns the measured GI50 for the input compound. Input: O=C(Nc1ccc(OCc2ccc(F)cc2)cc1)Nc1ccc(Cl)c(C(F)(F)F)c1
**A:** 3.52 µM

**Q:** Returns the measured GI50 for the input compound. Input: C=C1CCC2C3(C)COC(c4ccccc4)OC3CCC2(C)C1CC(Sc1ccccc1)C1=CCOC1=O (stereo not given)
**A:** 4.98 µM

###

System: MDA-MB-468 breast
PROTOCOL: NCI tumour cell line growth inhibition, 48 h
Definition: the class of an entry is the range in low group: < 3 µM; middle group: ≥ 3 µM and < 9 µM; high group: ≥ 9 µM that contains its TGI.

# COMPOUND, CLASS LABEL
rows = [
    ("O=C(Nc1ccc(OCc2ccc(F)cc2)cc1)Nc1ccc(Cl)c(C(F)(F)F)c1", "middle group"),
    ("O=C1c2cccc(Oc3ccccc3)c2C(=O)c2cccc(Oc3ccccc3)c21", "high group"),
    ("CCCCCOc1ccc(/C=N/Nc2cc(C)nc3ccc(Cl)cc23)cc1", "middle group"),
    ("COc1ccc(OC)c(NCC(=O)n2nc(/C=C\\c3ccc(O)c(OC)c3)cc2/C=C\\c2ccc(O)c(OC)c2)c1", "high group"),
    ("Cc1c(C(=N)C(C#N)C#N)c(=N)oc2c1ccc1ccccc12", "high group"),
]

**Q:** Hello team, could you let me know which band the following compound falls into: Cn1nccc1Nc1nccc(-c2ccn([C@H](CO)c3ccc(Cl)c(F)c3)c(=O)c2)n1
**A:** high group

**Q:** Hello team, could you let me know which band the following compound falls into: COc1ccc2sc3c(NCCCN)nc4ccccc4c3c(=O)c2c1
**A:** middle group

###

Test system: MDA-MB-468 breast
PROTOCOL: NCI tumour cell line growth inhibition, 48 h; in the data active means GI50 below about 0.43 µM; inactive means the rest
Just give me one of these, please: active, inactive

# count of solved cases: 3
# MOLECULE, CLASS LABEL
data = [
    ("O=C1Nc2cc(Cl)ccc2/C1=C/c1cccc(OCc2ccccc2)c1", "inactive"),
    ("CC1=C(C(=O)Nc2ccccc2)C(c2ccc(N(C)C)cc2)C(C(=O)Nc2ccccc2)=C(C)N1", "inactive"),
    ("Cn1nccc1Nc1nccc(-c2ccn([C@H](CO)c3ccc(Cl)c(F)c3)c(=O)c2)n1", "inactive"),
]

**Q:** Check the results log: what was the call for Cc1c(C(=N)C(C#N)C#N)c(=N)oc2c1ccc1ccccc12 ?
**A:** inactive

**Q:** Check the results log: what was the call for FC(F)(F)Oc1cccc(-c2cc(NCCCCCCNc3cc(-c4cccc(OC(F)(F)F)c4)nc4ccc(N5CCCC5)cc34)c3cc(N4CCCC4)ccc3n2)c1 ?
**A:** inactive

**Q:** Check the results log: what was the call for CC1(C)N=C(N)N=C(N)N1c1ccc(CCC(=O)Nc2ccc(S(=O)(=O)F)cc2)cc1 ?
**A:** inactive

**Q:** Check the results log: what was the call for CCN1C(=S)N(CC)C2C1NC(=S)N2/N=C/C=C/c1ccccc1OC (configuration not stated) ?
**A:** active

###

Tested on: MDA-MB-468 breast
PROTOCOL: NCI tumour cell line growth inhibition, 48 h
# TGI annotations
Answer format: numeric, nM implied, no suffix.

Some solved entries appear below for comparison.
# COMPOUND, TGI [nM]
data = [
    ("CCCCCCCCCCCC[N+]1(CCCCCCCCCCCC)CCCC(C)C1 (centres undefined)", 388),
    ("COc1ccc2c(N)ncc(C#Cc3cc(C(=O)Nc4ccc(CN5CCN(C)CC5)c(C(F)(F)F)c4)cnc3C)c2c1", 8940),
    ("CC(=O)O[C@H]1C(=O)[C@@]2(C)C([C@H](OC(=O)c3ccccc3)[C@]3(O)C[C@H](OC(=O)[C@H](O)[C@@H](NC(=O)c4ccccc4)c4ccccc4)C(C)=C1C3(C)C)[C@]1(OC(C)=O)CO[C@@H]1C[C@@H]2O (some centres undefined)", 54.5),
]

Moving on to the next compound.
**Q:** Returns the measured TGI for the input compound. Input: CCN(CC)CCCC(C)NCC(=O)NC(c1ccc2c(c1)OCO2)c1cc(Cl)c2cccnc2c1O (centres undefined)
**A:** 4500
